>  <MOLECULE>
C=Cc1c(N)cc(-c2ccc(Cl)c(OC)c2F)nc1C(=O)OC

>  <melting point>
118 to 121 °C

$$$$
>  <MOLECULE>
C/C=C\c1c(N)nc(-c2ccc(Cl)c(OC)c2F)nc1C(=O)OC

>  <melting point>
91 to 93 °C

$$$$
>  <MOLECULE>
C=Cc1c(N)nc(-c2ccc(Cl)c(C(C)F)c2F)nc1C(=O)OC (centres unmarked)

>  <melting point>
144 to 147 °C

$$$$
>  <MOLECULE>
COc1c(Cl)ccc(-c2nc(N)c(C(C)OC)c(C(=O)O)n2)c1F (centres unmarked)

>  <melting point>
165 to 167 °C

$$$$
>  <MOLECULE>
C=Cc1c(N)nc(-c2ccc(Cl)c(OC)c2F)nc1C(=O)O

>  <melting point>
167 to 168 °C

$$$$
